Data origin: paper PMC6010013

procedureSummary: Cytotoxicity, MTT assay
Assay type: cell-based, human
experimentalConditions: human, LO2 human normal liver cells, LO2 cells, MTT, 24 h
measuredEndpoint: IC50 at 24 h

For every item in the list below, what is its measured IC50 at 24 h?
1. C[N+](CCO)(CCO)CCCCCCSc1nnc(-c2ccc(C(F)(F)F)cc2)o1
2. C[N+](CCO)(CCO)CCCCCCSc1nnc(-c2ccc(F)cc2)o1
3. C[N+](CCO)(CCO)CCCCCCCCSc1nnc(-c2ccc(C(F)(F)F)cc2)o1

Response:
> 50 µg/mL
> 50 µg/mL
> 25 µg/mL

====

Test system: Canidia albicans
procedureSummary: MBC, agar plating of dilutions without growth
Format: cell-based
experimentalConditions: 99.9% bactericidal, read-out: Minimal bactericidal concentration (MBC)
From the text: In this paper, antimicrobial activities of 24 QASs were detected by quantitative tests. […] Benzalkonium chloride (BZK) and chlorhexidine acetate (CA) was selected as positive controls. Representative compound POT-C12QAS (2) which synthesised and evaluated in previous work was also taken as a reference compound in MIC, MBC and cytotoxicity tests. […]
For each entry below, report its MBC value.
Hey, just the number and the unit after it is fine.

{"compound": "C[N+](CCO)(CCO)CCCCCCCCCCCCSc1nnc(-c2ccccc2)o1 [Compound 2, reference compound]", "MBC": "12.5 µg/mL"}
{"compound": "C[N+](CCO)(CCO)CCCCCCSc1nnc(-c2ccc(F)cc2)o1 [Compound 5a]", "MBC": "50 µg/mL"}
{"compound": "C[N+](CCO)(CCO)CCCCCCCCCCCCSc1nnc(-c2ccc(F)cc2)o1 [Compound 5d]", "MBC": "12.5 µg/mL"}

// below: MBC requested for another compound
Prompt: If you can, please state the reported MBC value of C[N+](CCO)(CCO)CCCCCCCCCCCCSc1nnc(-c2ccc(C(F)(F)F)cc2)o1.[Br-] [Compound 6d] .
Response: 12.5 µg/mL
